Experiment: duplex melting temperature (HRM, EvaGreen); higher = more stable duplex
Settings: duplex concentration 20 µM; backbone: PS-PS (both strands fully phosphorothioate)
Measured property: duplex melting temperature (°C)
Output spec: scalar in °C, unitless text.

Examples with answers:
sequence_content=GGTTGCGGTGGCCAAC value_measured=54.5
sequence_content=TTAACCTGCAATGGATC value_measured=55
sequence_content=GAACCGTTGATGATCTC value_measured=55.8
sequence_content=CAAGCCTCGATTTTGT value_measured=56.6
sequence_content=GAACTGCCACTACCAA value_measured=58.5
sequence_content=GATGCCGCAGCGACCTG value_measured=70.2
sequence_content=ACTGTATCGCCCTA value_measured=59.2
sequence_content=GATCTCTCTATCATCGTTTATTGGGTAT value_measured=61.3
sequence_content=TATTCTGCCAATGGAAC value_measured=54.3
sequence_content=GCAGGAGCCGCGACCTG value_measured=71

Looking up TTTGGGTTAGTAAGAAGGCAGCAGTTGGGC , I see its duplex melting temperature listed as 70

Looking up GCCCGAGCATGACTGCG , I see its duplex melting temperature listed as 66.8

Looking up CCGTTGCTGCTAGG , I see its duplex melting temperature listed as 61.7

Looking up AGAGCGCCCTGCTGCC , I see its duplex melting temperature listed as 70.2

The values you see were collected from the supplement of paper PMC9116672.
